molecular target: rat NPY Y5 receptor (Rattus norvegicus, UniProt Q63634); construct: expressed in transfected cells; experiment: In vitro functional assay, forskolin-stimulated cAMP in cells stably expressing the receptor; format: cell-based; conditions: percentage of forskolin-stimulated adenylate cyclase; 1 µM forskolin; test compound 10 µM; 80 - 120% indicates no significant agonistic effect
RECORDED_ENDPOINT: % forskolin at 10 µM (%)

{"COMPOUND": "Cc1ccc(S(=O)(=O)CC(C(=O)c2nc3ccccc3[nH]2)c2ccc(F)cc2)cc1 (stereo not shown) [Compound 9]", "% forskolin at 10 µM, %": 105}
{"COMPOUND": "Cc1ccc(S(=O)(=O)CC(C(=O)c2nc3ccccc3s2)c2ccccc2)cc1 (stereo not shown) [Compound 6]", "% forskolin at 10 µM, %": 89}
{"COMPOUND": "COc1ccc2[nH]c(C(=O)C(CS(=O)(=O)c3ccc(C)cc3)c3ccccc3)nc2c1 (stereo not shown) [Compound 14]", "% forskolin at 10 µM, %": 99}
{"COMPOUND": "Cc1ccc(S(=O)(=O)CC(C(=O)c2ccc3ccccc3n2)c2ccccc2)cc1 (stereo not shown) [Compound 1]", "% forskolin at 10 µM, %": 78}
{"COMPOUND": "Cc1ccc(S(=O)(=O)CC(C(=O)c2nc3cc(C)c(C)cc3[nH]2)c2ccccc2)cc1 (stereo not shown) [Compound 7]", "% forskolin at 10 µM, %": 122}
{"COMPOUND": "O=C(c1nc2ccccc2[nH]1)C(CS(=O)(=O)c1ccccc1)c1ccccc1 (stereo not shown) [Compound 8]", "% forskolin at 10 µM, %": 105}
{"COMPOUND": "COc1ccc(S(=O)(=O)CC(C(=O)c2nc3ccccc3[nH]2)c2ccccc2)cc1 (stereo not shown) [Compound 10]", "% forskolin at 10 µM, %": 106}

* * *

target: human NPY Y5 receptor subtype (Homo sapiens, UniProt Q15761); assay: NPY Y5 receptor membrane binding, [125I]PYY (human); settings: membrane protein; 75-100 pM [125I]PYY; 50% inhibition of specific binding; read-out: IC50 (µM) NPY receptor indicated hY5
Sequence (Q15761 whole entry): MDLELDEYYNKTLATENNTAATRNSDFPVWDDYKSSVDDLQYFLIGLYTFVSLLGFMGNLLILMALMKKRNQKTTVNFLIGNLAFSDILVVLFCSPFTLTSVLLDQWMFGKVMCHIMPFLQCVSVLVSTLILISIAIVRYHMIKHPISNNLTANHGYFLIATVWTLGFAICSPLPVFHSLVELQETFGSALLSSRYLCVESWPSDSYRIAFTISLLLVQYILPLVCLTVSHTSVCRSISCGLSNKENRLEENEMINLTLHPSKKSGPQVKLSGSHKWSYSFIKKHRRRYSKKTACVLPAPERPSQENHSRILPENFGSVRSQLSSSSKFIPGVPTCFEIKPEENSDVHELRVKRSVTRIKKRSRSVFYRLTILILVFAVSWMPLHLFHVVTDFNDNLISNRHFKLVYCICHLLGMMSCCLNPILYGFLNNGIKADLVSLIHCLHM
RECORDED_ENDPOINT: IC50 (µM)

{"MOLECULE": "COc1ccc(S(=O)(=O)CC(C(=O)c2nc3ccccc3[nH]2)c2ccccc2)cc1 (stereo not shown)", "UNIT_ABBREV": "µM", "OBSERVED": 0.011}

P. Cc1ccc([S+]([O-])CC(C(=O)c2nc3ccccc3[nH]2)c2ccccc2)cc1 (stereo not shown)
Q. Cc1ccc(S(=O)(=O)CC(C(=O)c2nc3ccccc3[nH]2)c2ccccc2)cc1 (stereo not shown)
R. O=C(c1nc2ccccc2[nH]1)C(CS(=O)(=O)c1cccc2ccccc12)c1ccccc1 (stereo not shown)
## Task Rank descending by IC50. // format: requested-order list of labels
## Result P, R, Q
(P: 0.025 µM, R: 0.011 µM, Q: 0.005 µM)

* * *

Biological target: rat NPY Y5 receptor subtype (Rattus norvegicus, UniProt Q63634)
Sequence (Q63634 1-445): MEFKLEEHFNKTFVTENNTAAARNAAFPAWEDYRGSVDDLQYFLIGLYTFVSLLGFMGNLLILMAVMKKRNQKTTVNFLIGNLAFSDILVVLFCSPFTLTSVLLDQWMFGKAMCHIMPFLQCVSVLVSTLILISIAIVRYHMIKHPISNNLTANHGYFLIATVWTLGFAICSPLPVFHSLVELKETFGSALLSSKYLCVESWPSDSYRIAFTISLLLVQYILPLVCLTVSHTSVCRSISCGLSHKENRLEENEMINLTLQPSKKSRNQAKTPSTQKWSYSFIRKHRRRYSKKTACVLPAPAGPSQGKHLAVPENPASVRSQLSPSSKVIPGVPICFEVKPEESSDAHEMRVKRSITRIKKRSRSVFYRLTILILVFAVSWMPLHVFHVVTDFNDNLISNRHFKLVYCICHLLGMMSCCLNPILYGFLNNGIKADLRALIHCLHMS
Experiment: NPY Y5 receptor membrane binding, [125I]PYY (rat)
Conditions: membrane protein; 75-100 pM [125I]PYY; 50% inhibition of specific binding; read-out: IC50 (µM) NPY receptor indicated rY5
RECORDED_ENDPOINT: IC50 (µM)

{"COMPOUND": "Cc1ccc(S(=O)(=O)CC(C(=O)c2nc3ccccc3[nH]2)c2ccc(F)cc2)cc1 (stereo not drawn)", "TESTED_TARGET": "rat NPY Y5 receptor subtype (Rattus norvegicus, UniProt Q63634)", "UNIT_ABBREV": "µM", "IC50": 0.014}
{"COMPOUND": "Cc1ccc(S(=O)(=O)CC(C(=O)c2nc3ccccc3s2)c2ccccc2)cc1 (stereo not drawn)", "TESTED_TARGET": "rat NPY Y5 receptor subtype (Rattus norvegicus, UniProt Q63634)", "UNIT_ABBREV": "µM", "IC50": 10}
{"COMPOUND": "Cc1ccc(S(=O)(=O)CC(C(=O)c2ccc3ccccc3n2)c2ccccc2)cc1 (stereo not drawn)", "TESTED_TARGET": "rat NPY Y5 receptor subtype (Rattus norvegicus, UniProt Q63634)", "UNIT_ABBREV": "µM", "IC50": 9.8}

P. O=C(c1nc2ccccc2[nH]1)C(CS(=O)(=O)c1ccccc1)c1ccccc1 (stereo not drawn)
Q. Cc1ccc(SCC(C(=O)c2ncc[nH]2)c2ccccc2)cc1 (stereo not drawn)
R. COc1ccc(S(=O)(=O)CC(C(=O)c2nc3ccccc3[nH]2)c2ccccc2)cc1 (stereo not drawn)
S. Cc1ccc(S(=O)(=O)CC(C(=O)c2nc3cc(C)c(C)cc3[nH]2)c2ccccc2)cc1 (stereo not drawn)
T. Cc1ccc([S+]([O-])CC(C(=O)c2nc3ccccc3[nH]2)c2ccccc2)cc1 (stereo not drawn)
## Task Thanks in advance: please rank these 5 entries by IC50, highest to lowest. // rank by listing labels in the order requested
## Result Q, S, T, P, R
(Q: 0.46 µM, S: 0.0526 µM, T: 0.025 µM, P: 0.011 µM, R: 0.0067 µM)

* * *

biological target: human NPY Y5 receptor subtype (Homo sapiens, UniProt Q15761); assay: NPY Y5 receptor membrane binding, [125I]PYY (human); conditions: membrane protein; 75-100 pM [125I]PYY; 50% inhibition of specific binding; read-out: IC50 (µM) NPY receptor indicated hY5
RECORDED_ENDPOINT: IC50 (µM)

Observe how each entry below is paired with its result.
{"COMPOUND": "Cc1ccc(SCC(C(=O)c2ncc[nH]2)c2ccccc2)cc1 (stereo not shown)", "TESTED_TARGET": "human NPY Y5 receptor subtype (Homo sapiens, UniProt Q15761)", "OBSERVED": 0.83}
{"COMPOUND": "Cc1ccc(S(=O)(=O)CC(C(=O)c2nc3cc(C)ccc3[nH]2)c2ccccc2)cc1 (stereo not shown)", "TESTED_TARGET": "human NPY Y5 receptor subtype (Homo sapiens, UniProt Q15761)", "OBSERVED": 0.045}

I. O=C(c1nc2ccccc2[nH]1)C(CS(=O)(=O)c1ccc(Br)cc1)c1ccccc1 (stereo not shown)
II. COc1ccc2[nH]c(C(=O)C(CS(=O)(=O)c3ccc(C)cc3)c3ccccc3)nc2c1 (stereo not shown)
## Task Would you kindly point out which of I and II has the smaller IC50 figure? Label of pick, please.
## Result I
